Record form. Attribute: Euclidean distance. Fill in for each entry.
test system: 786-O; test: Euclidean distance of Cell Painting phenotypic profile (signed KS, 77 features) to DMSO centroid (dimensionless distance); 5 or 10 uM (library dependent); higher = stronger phenotypic change vs DMSO (phenoactivity); conditions: 48 h
Structures can show the parent of a compound that is named as a salt.
Answers are plain numbers.

Example entries begin here.
CC[C@@H](CO)NCCN[C@@H](CC)CO [Ethambutol HCl] : 1.4
COc1ccc2[nH]c([S+]([O-])Cc3ncc(C)c(OC)c3C)nc2c1 (configuration not stated) [Omeprazole Sodium] : 1.03
C[C@@H](O)[C@H]1C(=O)N2C(C(=O)O)=C(S[C@@H]3CN[C@H](C(=O)N(C)C)C3)[C@H](C)[C@H]12 [Meropenem Trihydrate] : 1.26
Cc1cccc(CN2CCN(C(c3ccccc3)c3ccc(Cl)cc3)CC2)c1 (configuration not stated) [Meclizine 2HCl] : 1.66
FC(F)(F)C(Cl)Br (configuration not stated) : 0.835

Provide reported Euclidean distance for each item, in the same order as listed.
1. CCOC(=O)CCC(=O)O[C@H]1[C@H](O[C@@H]2[C@@H](C)[C@H](O[C@H]3C[C@@](C)(OC)[C@@H](O)[C@H](C)O3)[C@@H](C)C(=O)O[C@H](CC)[C@@](C)(O)[C@H](O)[C@@H](C)C(=O)[C@H](C)C[C@@]2(C)O)O[C@H](C)C[C@@H]1N(C)C [Erythromycin Ethylsuccinate]
2. CC(C)Cc1ccc(C(C)C(=O)O)cc1 (configuration not stated) [Ibuprofen Lysine]
3. CN(C)c1ccc(C(=C2C=CC(=[N+](C)C)C=C2)c2ccc(N(C)C)cc2)cc1
4. c1ccc(CC2=NCCN2)cc1 [Tolazoline HCl]
5. Nc1ccncc1N
6. Cc1ccc(=O)n(-c2ccccc2)c1

Result:
[1.09, 1.27, 3.55, 0.97, 1.58, 1.25]

---

Exercise: state measured Euclidean distance for each of the compounds provided.
system: HEPG2; experiment: Euclidean distance of Cell Painting phenotypic profile (signed KS, 77 features) to DMSO centroid (dimensionless distance); 5 or 10 uM (library dependent); higher = stronger phenotypic change vs DMSO (phenoactivity); settings: 48 h
Numbers only.

Known Euclidean distance results, listed for orientation:
CCN1CCN(Cc2ccc(Nc3ncc(F)c(-c4cc(F)c5nc(C)n(C(C)C)c5c4)n3)nc2)CC1 : 3.78
Cc1cc(Nc2cc(N3CCN(C)CC3)nc(/C=C/c3ccccc3)n2)n[nH]1 [ENMD-2076 L-(+)-Tartaric acid] : 2.99
C[S+](CC[C@H](N)C(=O)[O-])C[C@H]1O[C@@H](n2cnc3c(N)ncnc32)[C@H](O)[C@@H]1O (some centres not stated) [Ademetionine] : 0.304
N#C/C(=C(/N)Sc1ccc(N)cc1)c1ccccc1C(F)(F)F : 1.41
CC[C@H]1OC(=O)[C@H](C)[C@@H](O[C@H]2C[C@@](C)(OC)[C@@H](O)[C@H](C)O2)[C@H](C)[C@@H](O[C@@H]2O[C@H](C)C[C@H](N(C)C)[C@H]2O)[C@](C)(O)C[C@@H](C)/C(=N\OCOCCOC)[C@H](C)[C@@H](O)[C@]1(C)O [Roxithromycin] : 0.654
C[C@H](NC(=O)[C@@H](Cc1ccc2ccccc2c1)NC(=O)[C@@H](C)N)C(=O)N[C@@H](Cc1c[nH]c2ccccc12)C(=O)N[C@H](Cc1ccccc1)C(=O)N[C@@H](CCCCN)C(N)=O : 2.01

Continue with the next compound.
Query: Find the measured Euclidean distance of O=C(O)Cc1ccccc1Nc1c(Cl)cccc1Cl [Diclofenac Diethylamine] and report it.
Result: 0.397

---

system: OVCAR4; assay: Euclidean distance of Cell Painting phenotypic profile (signed KS, 77 features) to DMSO centroid (dimensionless distance); 5 or 10 uM (library dependent); higher = stronger phenotypic change vs DMSO (phenoactivity); settings: 48 h
Measured Metric: Euclidean distance
Give bare numbers.

CC(C)(O)[C@H]1CC[C@@](C)([C@H]2[C@@H](O)C[C@@]3(C)[C@@H]4C[C@H](O[C@@H]5O[C@H](CO)[C@@H](O)[C@H](O)[C@H]5O)[C@H]5C(C)(C)[C@@H](O[C@@H]6OC[C@@H](O)[C@H](O)[C@H]6O)CC[C@@]56C[C@@]46CC[C@]23C)O1 [Astragaloside A] : 3.11

Can you give me Euclidean distance for all of these, one by one?
1. CC(=O)OCC1=C(C(=O)O)N2C(=O)[C@@H](NC(=O)CSc3ccncc3)[C@H]2SC1
2. O=c1cc(-c2ccccc2)oc2cc(O)cc(O)c12
3. Oc1cc(O)c2c(c1)OC(c1ccc(O)c(O)c1)C(O)C2 (single isomer, unassigned; (+)) [(+)-Catechin]
4. CNc1ncc(-c2ccc3c(=O)c(C(=O)O)cn(C4CC4)c3c2C)cc1C
5. C=C[C@@]1(C)CC(=O)[C@]2(O)[C@@]3(C)[C@@H](O)CCC(C)(C)[C@@H]3[C@H](O)[C@H](OC(C)=O)[C@@]2(C)O1

Result:
1: 0.965; 2: 1.37; 3: 0.849; 4: 0.85; 5: 1.23

---

test system: OVCAR4; experiment: Euclidean distance of Cell Painting phenotypic profile (signed KS, 77 features) to DMSO centroid (dimensionless distance); 5 or 10 uM (library dependent); higher = stronger phenotypic change vs DMSO (phenoactivity); details: 48 h
Measured Metric: Euclidean distance
Numbers only.

COc1cc2nccc(Oc3ccc(NC(=O)Nc4cc(C)on4)c(Cl)c3)c2cc1OC : 2.39
O=C1CCc2cc(OCCCCc3nnnn3C3CCCCC3)ccc2N1 : 1.26
CC(C)c1cc(C(=O)N2Cc3ccc(CN4CCN(C)CC4)cc3C2)c(O)cc1O : 2.89
Oc1c(Cl)cc(Cl)c2cccnc12 : 2.02

// switching to the query compound
Query: Report Euclidean distance from OVCAR4 testing of "Nc1nc2c(ncn2COC(CO)CO)c(=O)[nH]1"
Result: 3.37

---

tested on: DU145; experiment: Euclidean distance of Cell Painting phenotypic profile (signed KS, 77 features) to DMSO centroid (dimensionless distance); 5 or 10 uM (library dependent); higher = stronger phenotypic change vs DMSO (phenoactivity); details: 48 h
Structures can show the parent of a compound that is named as a salt.
Measured Metric: Euclidean distance
Numbers only.

Below, 2 molecules whose answers are already recorded.
O=C(NC1CCN(CCCCC2(C(=O)NCC(F)(F)F)c3ccccc3-c3ccccc32)CC1)c1ccccc1-c1ccc(C(F)(F)F)cc1 [Lomitapide Mesylate] : 6.1
N[C@@]1(C(=O)O)CS(=O)(=O)[C@H]2[C@H](C(=O)O)[C@H]21 : 0.671

Hi! Can you tell me Euclidean distance for each of these molecules?
1. c1cc(-c2cnn3cc(-c4ccc(N5CCNCC5)cc4)cnc23)c2cccnc2c1
2. OCCN1C[C@H](O)[C@@H](O)[C@H](O)[C@H]1CO
3. Nc1ccc(/N=N/c2ccccc2)c(N)n1 [Phenazopyridine HCl]

Result:
[4.45, 1.16, 0.961]

---

Please provide measured Euclidean distance for the entries that follow.
tested on: DU145; test: Euclidean distance of Cell Painting phenotypic profile (signed KS, 77 features) to DMSO centroid (dimensionless distance); 5 or 10 uM (library dependent); higher = stronger phenotypic change vs DMSO (phenoactivity); conditions: 48 h
Where a name gives a salt, the structure may show the parent alone.
Answers are plain numbers.

Study these solved cases before continuing.
CC(CN(C)C)CN1c2ccccc2Sc2ccccc21 (configuration not stated) [Alimemazine Tartrate] : 1.73
NC(=O)c1cnc2[nH]ccc2c1N[C@@H]1[C@@H]2CC3C[C@H]1C[C@@](O)(C3)C2 : 1.41
O=C(O)c1cc(O)c2c(c1)[C@@H]([C@H]1c3cc(C(=O)O)cc(O)c3C(=O)c3c(O[C@@H]4O[C@H](CO)[C@@H](O)[C@H](O)[C@H]4O)cccc31)c1cccc(O[C@@H]3O[C@H](CO)[C@@H](O)[C@H](O)[C@H]3O)c1C2=O [Sennoside B] : 0.808
COc1cc(O)c(C(=O)Nc2nc(C(=O)NCCN(C(C)C)C(C)C)cs2)cc1OC [Acotiamide] : 0.881
O=C(O)c1cn(C2CC2)c2cc(N3CCNCC3)c(F)cc2c1=O [Ciprofloxacin hydrochloride hydrate] : 0.784
CN[C@@H]1[C@@H](O)[C@@H](O[C@@H]2[C@@H](O)[C@H](O[C@H]3O[C@H](CN)[C@@H](O)[C@H](O)[C@H]3O)[C@@H](N)C[C@H]2NC(=O)[C@@H](O)CN)OC[C@]1(C)O [Isepamicin Sulphate] : 0.819

Query: Entry "Cc1cc(O)c2c(c1)C(=O)c1cccc(O)c1C2=O" needs its Euclidean distance filled in; supply it.
Result: 1.3

---

system: FB; assay: Euclidean distance of Cell Painting phenotypic profile (signed KS, 77 features) to DMSO centroid (dimensionless distance); 5 or 10 uM (library dependent); higher = stronger phenotypic change vs DMSO (phenoactivity); details: 48 h
Structures can show the parent of a compound that is named as a salt.
Reported Euclidean distance maps to class as: class A = under 0.9, class B = from 0.9 up to 2, class C = 2 and over

Here's what some known entries look like.
CC[C@]12CCCN3CCc4c(n(c5ccccc45)[C@@](O)(C(=O)OC)C1)[C@@H]32 : class A
CN1CCN(c2cc3c(cc2F)c(=O)c(C(=O)O)cn3-c2ccc(F)cc2)CC1 [Difloxacin hydrochloride] : class B
CNC(=O)[C@@H](NC(=O)[C@H](CC(C)C)[C@H](O)C(=O)NO)C(C)(C)C : class B

Query: For this compound, which bin applies? CCCCNc1cc(C(=O)O)cc(S(N)(=O)=O)c1Oc1ccccc1 [Bumetanide]
Result: class B

Query: Band of CCN(CC)Cc1cc(Nc2ccnc3cc(Cl)ccc23)ccc1O [Amodiaquine hydrochloride] ?
Result: class C

Query: For the record "Cc1cc2c(F)c(Oc3ncnn4cc(OC[C@@H](C)OC(=O)[C@H](C)N)c(C)c34)ccc2[nH]1" , report the class its Euclidean distance corresponds to.
Result: class B

Query: For this compound, which bin applies? "Nc1nnc(-c2cccc(Cl)c2Cl)c(N)n1"
Result: class B

Query: Exam item: assign CCOC(=O)c1ccc(OC(=O)CCCCCNC(=N)N)cc1 [Gabexate Mesylate] to the correct category.
Result: class A

Query: Would you mind sorting OCCN1CCN(CCCN2c3ccccc3Sc3ccc(C(F)(F)F)cc32)CC1 [Fluphenazine dihydrochloride] into the appropriate category?
Result: class C

Query: Which class holds N[C@@H](Cc1c[nH]c2ccc(O)cc12)C(=O)O [5-hydroxytryptophan (5-HTP)] ?
Result: class B

Query: Would you mind sorting "O=C1c2cccc(O)c2C(=O)c2c(O)cc(CO)cc21" into the appropriate category?
Result: class B

Query: Lab note: sort CN1CCC(CNc2ccc3ncc(-c4cccc(OC(F)(F)F)c4)n3n2)CC1 [SGI-1776 free base] into the matching Euclidean distance band.
Result: class C

Query: For Clc1ccc(C(Cn2ccnc2)OCc2csc3c(Cl)cccc23)c(Cl)c1 (stereo not drawn) [Sertaconazole nitrate] , which Euclidean distance bin applies?
Result: class B

Query: Using the reported Euclidean distance, which band applies to Nc1ccc2cc3ccc(N)cc3nc2c1 [Proflavine] ?
Result: class C

Query: Could you tell me which band "NC1(Cc2ccc(Cl)cc2)CCN(c2ncnc3[nH]ccc23)CC1" belongs to?
Result: class B

Query: Determine which band this compound sits in: "O=C(O)CCNC(=O)c1ccccc1"
Result: class A
